TARGET ENTITY: human 5-HT2A serotonin receptor (Homo sapiens (Human))
METHOD SUMMARY: [125I]DOI radioligand binding assay
MEASUREMENT CONDITIONS: 0.5 nM [125I]DOI, COS7 membranes, recombinant human 5-HT2A
RECORDED ENDPOINT: IC50 (nM)
Write it as a number; the unit nM goes unstated.

Guide cases for IC50, answers given:
# input Tell me measured IC50 for `Cc1[nH]nc(C(=O)N2CCN(CC(=O)c3ccc(F)cc3)CC2)c1F` please.
# output 11

# input Tell me measured IC50 for `Cc1[nH]nc(C(=O)N2CCN(CC(=O)c3ccc(F)cc3)CC2)c1Br` please.
# output 4.6

# input Tell me measured IC50 for `Cn1cc(Cl)c(C(=O)N2CCN(CCc3ccccc3F)CC2)n1` please.
# output 36

Next:
# input Tell me measured IC50 for `Cn1nc(C(=O)N2CCN(CC(=O)c3ccc(F)cc3)CC2)cc1-c1ccco1` please.
# output 4.8
